Data origin: patent US20260109776A1

- tested_system: human CD40 (human, UniProt P25942 21-193, limits assumed)
- Sequence (P25942 21-193 limits assumed): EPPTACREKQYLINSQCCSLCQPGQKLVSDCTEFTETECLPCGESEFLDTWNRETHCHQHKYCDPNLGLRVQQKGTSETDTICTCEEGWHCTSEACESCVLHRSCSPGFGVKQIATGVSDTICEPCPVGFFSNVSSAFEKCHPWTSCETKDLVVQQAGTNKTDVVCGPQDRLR
- test_summary: Octet
- Method: The binding affinity of anti-human CD40 antibodies to human and cynomolgus monkey CD40 was measured by Octet assay (Table 3), quantifying association rate (Kon), disassociation rate (Kdis), and equilibrium binding constant (KD). Cross-reactivity of anti-CD40 antibodies to related TNF receptor superfamily (TNFRSF) members was evaluated by expressing human TNFR1, TNFR2, TNFR10, or TNFR14 on HEK293 cells by transient transfection of expression vectors encoding these genes. […]
# koff per entry
recorded_endpoint: koff (s⁻¹)

{"binder": "4G7 (antibody, IgG4, V domains shown, also called 4869-1) VH: QVQLVQSGAEVKKPGASVKVSCKASGYTFAGYYMHWVRQAPGQGLEWMGWINPDSGGTNFAQQFQGRVTMTRDTSISTAYMEVSRLRSDDTAVFYCAREKITMTGIYFDYWGQGTLVTVSS VL: DIQMTQSPSSLSASVGDILTITCRASQNITTYLNWYQQKPGKAPNLLISAASRLRSGVPSRFSGSGSGTDFTLTISSLQPVDFTTFYCQQTFTTPWTFGQGTKVEIKR", "measurement_units": "s⁻¹", "observed_value": 0.00108}
{"binder": "39C2 (antibody, IgG4, V domains shown, also called 4887-1) VH: QVQLVQSGTEVKKPGASVKVSCKASGYTFPGYYMHWVRQAPGQGLEWMGWINPDSGGTKYTQKFQGRVTLTRDASVSTAYIDLNRLRSDDTAVYYCARERCRTTNCYLDYWGQGSLVTVSS VL: QSALTQPASVSGSPGQSITISCTGTSSDVGNYNLVSWYQQHPGKAPKLMIYEVNRRPSGVSNRFSGSKSGNTASLTISGLQAEDEAEYYCCSYAGRDTFVVFGGGTKLTVLG", "measurement_units": "s⁻¹", "observed_value": 0.000614}
{"binder": "36F3 (antibody, IgG4, V domains shown, also called 4891-1) VH: QVQLQQSGPGLVKPSQTLSLTCAISGDSVSSSRTAWNWIRQSPSRGLEWLGRTYYRSKWYHDYSVSVKSRITIDPDTSKNQFSLQLNSVTPEDTAVYYCARGAAPFDYWGQGTLVTVSS VL: EIVLTQSPGTLSLSPGERATLSCRASQSVSSNYLAWYQQKPGQAPRALIYAASNRAAGISDRFSGSGSGTDFTLTISRLEPEDFAVYFCQQYGSSPLTFGGGTKVEIKR", "measurement_units": "s⁻¹", "observed_value": 0.000443}
